System: mitochondrial cytochrome C oxidase subunit II (COXII) gene
Format: cell-based, human
Conditions: HepG2, 10 μM, 7 days
Protocol: The Q-RT-PCR technology was also used to evaluate potential mitochondrial γ-DNA polymerase inhibition by the compounds of the present invention in relevant human cells. […] In an attempt to provide direct quantifiable data on mitochondrial DNA levels intracellular, a Q-PCR technology was designed and relative quantification of COXII DNA levels were calculated using the comparative Ct method. […]
Observed property: Average ΔΔCt ± SD COXII-rDNA
Reply with just the number.

*Q* Read off the recorded Average ΔΔCt ± SD COXII-rDNA for Nc1ccn([C@@H]2C=C(F)[C@H](CO)O2)c(=O)n1 [Compound 23]
*A* 0.36

*Q* Look up Average ΔΔCt ± SD COXII-rDNA of Cc1cn([C@H]2C[C@H](N=[N+]=[N-])[C@@H](CO)O2)c(=O)[nH]c1=O [AZT, 3′-azido-3′-deoxythymidine, reference compound] and report it.
*A* −0.61

*Q* Please report Average ΔΔCt ± SD COXII-rDNA for the following compound: Nc1ccn([C@H]2S[C@@H](CO)C=C2F)c(=O)n1
*A* −0.55

*Q* Quickly give me recorded Average ΔΔCt ± SD COXII-rDNA for Nc1nc(=O)n([C@H]2S[C@@H](CO)C=C2F)cc1F
*A* −0.16
